Source: ChEMBL document CHEMBL1143164

target: Phosphatidylinositol 4,5-bisphosphate 3-kinase catalytic subunit alpha isoform (Homo sapiens, UniProt P42336); test: Inhibition of PI3K expressed in Escherichia coli by microtiter plate-based fluorescence polarization assay
Sequence (P42336 whole entry, canonical isoform): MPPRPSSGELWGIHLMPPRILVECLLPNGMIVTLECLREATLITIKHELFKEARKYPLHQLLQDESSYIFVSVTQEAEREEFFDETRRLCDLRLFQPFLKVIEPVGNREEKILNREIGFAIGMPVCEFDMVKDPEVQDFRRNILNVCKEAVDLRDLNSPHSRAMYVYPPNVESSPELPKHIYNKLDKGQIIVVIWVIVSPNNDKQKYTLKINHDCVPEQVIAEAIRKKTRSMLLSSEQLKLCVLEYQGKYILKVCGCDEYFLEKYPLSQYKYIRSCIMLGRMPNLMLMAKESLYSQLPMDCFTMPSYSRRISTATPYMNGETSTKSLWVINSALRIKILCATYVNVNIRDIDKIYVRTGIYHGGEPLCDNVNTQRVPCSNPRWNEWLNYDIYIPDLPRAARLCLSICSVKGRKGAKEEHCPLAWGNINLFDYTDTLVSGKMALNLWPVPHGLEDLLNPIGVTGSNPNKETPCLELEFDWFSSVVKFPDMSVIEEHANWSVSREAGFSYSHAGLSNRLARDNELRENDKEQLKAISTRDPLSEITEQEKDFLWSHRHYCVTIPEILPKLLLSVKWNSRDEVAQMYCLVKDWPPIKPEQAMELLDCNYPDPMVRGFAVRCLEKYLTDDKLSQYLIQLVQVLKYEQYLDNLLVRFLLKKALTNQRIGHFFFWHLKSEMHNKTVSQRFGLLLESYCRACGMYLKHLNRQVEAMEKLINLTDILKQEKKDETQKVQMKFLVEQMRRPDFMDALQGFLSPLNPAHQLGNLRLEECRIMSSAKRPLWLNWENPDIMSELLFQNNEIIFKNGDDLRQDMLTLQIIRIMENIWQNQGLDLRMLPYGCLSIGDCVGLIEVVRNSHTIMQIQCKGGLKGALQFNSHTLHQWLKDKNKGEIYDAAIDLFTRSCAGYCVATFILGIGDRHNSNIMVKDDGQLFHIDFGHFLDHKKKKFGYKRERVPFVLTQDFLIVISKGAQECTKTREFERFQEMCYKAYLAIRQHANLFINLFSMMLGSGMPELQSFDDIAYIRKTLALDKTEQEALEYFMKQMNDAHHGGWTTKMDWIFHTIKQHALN
PROPERTY_LABEL: IC50 (nM)

Use these answered entries as a reference point.
{"COMPOUND": "COC[C@H]1OC(=O)/C(=C/N(C)CCCN(C)C)C2=C(O)C(=O)C3=C([C@H](O)C[C@]4(C)[C@@H](O)CC[C@@H]34)[C@]21C", "PROPERTY_LABEL": "IC50", "EXPERIMENTAL_RESULT": 638}
{"COMPOUND": "COC[C@H]1OC(=O)/C(=C/N2CCN(CCN3CCOCC3)CC2)C2=C(O)C(=O)C3=C([C@H](OC(C)=O)C[C@]4(C)[C@@H](O)CC[C@@H]34)[C@]21C", "PROPERTY_LABEL": "IC50", "EXPERIMENTAL_RESULT": 78}
{"COMPOUND": "CCN(/C=C1/C(=O)O[C@H](COC)[C@@]2(C)C1=C(O)C(=O)C1=C2[C@H](O)C[C@]2(C)[C@@H](O)CC[C@@H]12)CC", "PROPERTY_LABEL": "IC50", "EXPERIMENTAL_RESULT": 7850}
{"COMPOUND": "C=CCN(/C=C1/C(=O)O[C@H](COC)[C@@]2(C)C1=C(O)C(=O)C1=C2[C@H](OC(C)=O)C[C@]2(C)C(=O)CC[C@@H]12)CC=C", "PROPERTY_LABEL": "IC50", "EXPERIMENTAL_RESULT": 88}
{"COMPOUND": "COC[C@H]1OC(=O)/C(=C/N(C)CCCN(C)C)C2=C(O)C(=O)C3=C([C@H](OC(C)=O)C[C@]4(C)[C@@H](O)CC[C@@H]34)[C@]21C", "PROPERTY_LABEL": "IC50", "EXPERIMENTAL_RESULT": 64}

(A) COC[C@H]1OC(=O)/C(=C/N(CCCN(C)C)C(C)(C)C)C2=C(O)C(=O)C3=C([C@H](OC(C)=O)C[C@]4(C)[C@@H](O)CC[C@@H]34)[C@]21C
(B) COC[C@H]1OC(=O)/C(=C/N2CCC(C(=O)OC)CC2)C2=C(O)C(=O)C3=C([C@H](OC(C)=O)C[C@]4(C)[C@@H](O)CC[C@@H]34)[C@]21C
Query: Compare reported IC50 values for A and B . Which is lower? // return label of chosen record
Response: A
(A: 9.6 nM, B: 31 nM)

----------
target: Inhibitor of nuclear factor kappa-B kinase subunit beta (Homo sapiens); test: Inhibition of IKK-beta
Sequence (O14920 whole entry): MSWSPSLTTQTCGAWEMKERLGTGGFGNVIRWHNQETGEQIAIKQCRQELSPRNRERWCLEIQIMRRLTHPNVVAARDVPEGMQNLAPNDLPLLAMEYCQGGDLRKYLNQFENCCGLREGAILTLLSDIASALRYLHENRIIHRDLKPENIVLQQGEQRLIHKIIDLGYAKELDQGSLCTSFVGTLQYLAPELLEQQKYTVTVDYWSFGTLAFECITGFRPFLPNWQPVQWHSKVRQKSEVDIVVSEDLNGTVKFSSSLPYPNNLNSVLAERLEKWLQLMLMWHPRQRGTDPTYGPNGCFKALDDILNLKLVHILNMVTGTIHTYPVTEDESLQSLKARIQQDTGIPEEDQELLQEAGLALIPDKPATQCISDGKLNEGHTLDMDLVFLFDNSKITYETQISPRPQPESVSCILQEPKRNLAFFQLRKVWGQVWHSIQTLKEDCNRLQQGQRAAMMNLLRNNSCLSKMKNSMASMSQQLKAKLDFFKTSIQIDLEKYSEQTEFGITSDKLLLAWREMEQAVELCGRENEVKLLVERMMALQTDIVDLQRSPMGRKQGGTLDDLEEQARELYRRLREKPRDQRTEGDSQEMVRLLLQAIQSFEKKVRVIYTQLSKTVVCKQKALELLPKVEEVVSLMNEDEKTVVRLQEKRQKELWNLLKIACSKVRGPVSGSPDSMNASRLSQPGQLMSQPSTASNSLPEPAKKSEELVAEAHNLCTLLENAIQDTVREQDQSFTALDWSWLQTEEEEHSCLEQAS
pIC50: −log10 of the molar value.
# pIC50 annotations

{"SMILES_STRUCTURE": "COC[C@H]1OC(=O)/C(=C/N(CCO)C(C)(C)C)C2=C(O)C(=O)C3=C([C@H](OC(C)=O)C[C@]4(C)[C@@H](O)CC[C@@H]34)[C@]21C", "STUDY_TARGET": "Inhibitor of nuclear factor kappa-B kinase subunit beta (Homo sapiens)", "pIC50": "< 5.00"}

Okay, next one:
Query: Param readout = pIC50; param system = Inhibitor of nuclear factor kappa-B kinase subunit beta (Homo sapiens); param query = `COC[C@H]1OC(=O)/C(=C/N(C)CCCN(C)C)C2=C(O)C(=O)C3=C([C@H](OC(C)=O)C[C@]4(C)[C@@H](O)CC[C@@H]34)[C@]21C` ; response: value
Response: < 5.00

----------
molecular target: Ribosomal protein S6 kinase beta-1 (Homo sapiens, UniProt P23443)
Sequence (P23443 whole entry): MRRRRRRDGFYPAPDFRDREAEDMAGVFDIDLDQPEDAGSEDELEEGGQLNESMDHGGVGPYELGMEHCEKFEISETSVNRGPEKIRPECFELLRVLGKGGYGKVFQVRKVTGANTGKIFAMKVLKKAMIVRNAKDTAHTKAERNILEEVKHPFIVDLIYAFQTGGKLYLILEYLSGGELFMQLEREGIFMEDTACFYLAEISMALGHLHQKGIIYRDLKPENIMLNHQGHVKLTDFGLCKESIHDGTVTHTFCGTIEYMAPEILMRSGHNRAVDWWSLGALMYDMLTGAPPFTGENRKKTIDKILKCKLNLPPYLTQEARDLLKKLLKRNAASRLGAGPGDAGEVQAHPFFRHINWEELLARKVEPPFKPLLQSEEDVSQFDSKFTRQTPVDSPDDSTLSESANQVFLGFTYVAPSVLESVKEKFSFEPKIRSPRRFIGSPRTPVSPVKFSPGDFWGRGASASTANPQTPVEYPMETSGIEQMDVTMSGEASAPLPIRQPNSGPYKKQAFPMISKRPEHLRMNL
PROPERTY_LABEL: IC50

{"SMILES_STRUCTURE": "COC[C@H]1OC(=O)/C(=C/N(CCO)C(C)(C)C)C2=C(O)C(=O)C3=C([C@H](OC(C)=O)C[C@]4(C)[C@@H](O)CC[C@@H]34)[C@]21C", "IC50": "> 30 µM"}

Now consider a different compound.
Query: Reported IC50, compound `COC[C@H]1OC(=O)/C(=C/N(C)CCCN(C)C)C2=C(O)C(=O)C3=C([C@H](OC(C)=O)C[C@]4(C)[C@@H](O)CC[C@@H]34)[C@]21C` : ____
Response: > 30 µM

----------
target: Phosphatidylinositol 4,5-bisphosphate 3-kinase catalytic subunit alpha isoform (Homo sapiens); experiment: Inhibition of PI3K expressed in Escherichia coli by microtiter plate-based fluorescence polarization assay
pIC50: −log10 of the molar value.
PROPERTY_LABEL: pIC50

(1) COC[C@H]1OC(=O)/C(=C/N2CCN(C3CCN(C)CC3)CC2)C2=C(O)C(=O)C3=C([C@H](OC(C)=O)C[C@]4(C)[C@@H](O)CC[C@@H]34)[C@]21C
(2) COC[C@H]1OC(=O)/C(=C/N(C)CCCN2CCN(C)CC2)C2=C(O)C(=O)C3=C([C@H](OC(C)=O)C[C@]4(C)[C@@H](O)CC[C@@H]34)[C@]21C
(3) CCN(/C=C1/C(=O)O[C@H](COC)[C@@]2(C)C1=C(O)C(=O)C1=C2[C@H](OC(C)=O)C[C@]2(C)[C@@H](O)CC[C@@H]12)CCN(CC)CC
(4) COC[C@H]1OC(=O)/C(=C/N(CCO)CCO)C2=C(O)C(=O)C3=C([C@H](OC(C)=O)C[C@]4(C)[C@@H](O)CC[C@@H]34)[C@]21C
(5) COC[C@H]1OC(=O)/C(=C/N2CCCC2)C2=C(O)C(=O)C3=C([C@H](OC(C)=O)C[C@]4(C)[C@@H](O)CC[C@@H]34)[C@]21C
Query: # rank_down: sort by pIC50, max first Thanks in advance for listing the labels in the requested order.
Response: 2, 3, 1, 5, 4

----------
target: Phosphatidylinositol 4,5-bisphosphate 3-kinase catalytic subunit alpha isoform (Homo sapiens, UniProt P42336); test: Inhibition of PI3K expressed in Escherichia coli by microtiter plate-based fluorescence polarization assay
pIC50: −log10 of the molar value.
PROPERTY_LABEL: pIC50

Some compounds with known pIC50 results, for comparison:
{"SMILES_STRUCTURE": "COC[C@H]1OC(=O)/C(=C/N(CCO)C(C)(C)C)C2=C(O)C(=O)C3=C([C@H](OC(C)=O)C[C@]4(C)[C@@H](O)CC[C@@H]34)[C@]21C", "pIC50": 5.95}
{"SMILES_STRUCTURE": "COC[C@H]1OC(=O)/C(=C/N2CCN(c3ccccc3)CC2)C2=C(O)C(=O)C3=C([C@H](OC(C)=O)C[C@]4(C)[C@@H](O)CC[C@@H]34)[C@]21C", "pIC50": 7.25}
{"SMILES_STRUCTURE": "COC[C@H]1OC(=O)/C(=C/N2CCN(CCCN(C)C)CC2)C2=C(O)C(=O)C3=C([C@H](OC(C)=O)C[C@]4(C)[C@@H](O)CC[C@@H]34)[C@]21C", "pIC50": 7.42}
{"SMILES_STRUCTURE": "COC[C@H]1OC(=O)/C(=C/N(C)CCCN2CCN(c3ccc(OC)cc3)CC2)C2=C(O)C(=O)C3=C([C@H](OC(C)=O)C[C@]4(C)[C@@H](O)CC[C@@H]34)[C@]21C", "pIC50": 7.82}
{"SMILES_STRUCTURE": "COC[C@H]1OC(=O)/C(=C/N2CCC(N3CCCCC3)CC2)C2=C(O)C(=O)C3=C([C@H](OC(C)=O)C[C@]4(C)[C@@H](O)CC[C@@H]34)[C@]21C", "pIC50": 7.20}

(1) COC[C@H]1OC(=O)/C(=C/N(C)CCCN2CCOCC2)C2=C(O)C(=O)C3=C([C@H](OC(C)=O)C[C@]4(C)[C@@H](O)CC[C@@H]34)[C@]21C
(2) COC[C@H]1OC(=O)/C(=C/N(C)CC(=O)OC(C)(C)C)C2=C(O)C(=O)C3=C([C@H](OC(C)=O)C[C@]4(C)[C@@H](O)CC[C@@H]34)[C@]21C
Query: Between the entries labelled 1 and 2 , which has a larger pIC50 value on record? Your answer should be the label of the entry you select.
Response: 1

----------
molecular target: Phosphatidylinositol 4,5-bisphosphate 3-kinase catalytic subunit delta isoform (Homo sapiens, UniProt O00329); test: Inhibition of PI3Kdelta
Sequence (O00329 whole entry, canonical isoform): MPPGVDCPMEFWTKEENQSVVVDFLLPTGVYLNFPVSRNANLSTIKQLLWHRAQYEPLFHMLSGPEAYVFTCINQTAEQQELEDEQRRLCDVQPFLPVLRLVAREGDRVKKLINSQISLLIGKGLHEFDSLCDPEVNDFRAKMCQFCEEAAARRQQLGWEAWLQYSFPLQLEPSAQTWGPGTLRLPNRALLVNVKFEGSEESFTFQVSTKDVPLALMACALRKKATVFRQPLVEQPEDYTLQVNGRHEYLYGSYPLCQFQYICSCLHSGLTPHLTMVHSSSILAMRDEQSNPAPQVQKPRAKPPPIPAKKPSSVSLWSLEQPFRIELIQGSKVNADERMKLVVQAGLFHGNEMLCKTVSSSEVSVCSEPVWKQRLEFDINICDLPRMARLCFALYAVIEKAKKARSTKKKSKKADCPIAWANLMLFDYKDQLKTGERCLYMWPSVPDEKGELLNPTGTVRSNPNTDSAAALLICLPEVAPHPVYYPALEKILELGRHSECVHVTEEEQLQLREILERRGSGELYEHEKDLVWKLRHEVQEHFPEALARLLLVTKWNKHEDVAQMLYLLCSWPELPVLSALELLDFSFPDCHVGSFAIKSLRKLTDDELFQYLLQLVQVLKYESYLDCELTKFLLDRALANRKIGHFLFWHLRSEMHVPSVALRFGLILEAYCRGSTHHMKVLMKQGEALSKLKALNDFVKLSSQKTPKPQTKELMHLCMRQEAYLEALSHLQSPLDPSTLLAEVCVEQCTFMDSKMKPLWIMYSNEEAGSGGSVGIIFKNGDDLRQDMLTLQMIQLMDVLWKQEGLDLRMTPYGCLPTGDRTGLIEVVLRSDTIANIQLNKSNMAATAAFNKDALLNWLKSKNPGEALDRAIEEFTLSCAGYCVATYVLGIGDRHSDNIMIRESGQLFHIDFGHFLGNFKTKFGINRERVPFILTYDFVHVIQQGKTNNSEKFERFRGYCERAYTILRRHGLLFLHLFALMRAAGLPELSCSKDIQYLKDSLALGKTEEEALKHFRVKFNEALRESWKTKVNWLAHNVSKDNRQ
PROPERTY_LABEL: pIC50
Worth noting: pIC50 values are minus log10 of concentrations stated in mol/L.

Query: Requested read-out: pIC50. Entry: `COC[C@H]1OC(=O)/C(=C/N(C)CCCN(C)C)C2=C(O)C(=O)C3=C([C@H](OC(C)=O)C[C@]4(C)[C@@H](O)CC[C@@H]34)[C@]21C`
Response: 7.96

----------
The following compounds have recorded IC50 on Serine/threonine-protein kinase mTOR (Homo sapiens, UniProt P42345).
PROPERTY_LABEL: IC50 (nM)

These solved cases illustrate the format of a correct answer.
{"SMILES_STRUCTURE": "COC[C@H]1OC(=O)/C(=C/N2CCN(C)CC2)C2=C(O)C(=O)C3=C([C@H](OC(C)=O)C[C@]4(C)[C@@H](O)CC[C@@H]34)[C@]21C", "READOUT_UNIT": "nM", "EXPERIMENTAL_RESULT": 829}
{"SMILES_STRUCTURE": "COC[C@H]1OC(=O)/C(=C/N(CCO)C(C)(C)C)C2=C(O)C(=O)C3=C([C@H](OC(C)=O)C[C@]4(C)[C@@H](O)CC[C@@H]34)[C@]21C", "READOUT_UNIT": "nM", "EXPERIMENTAL_RESULT": 28600}
{"SMILES_STRUCTURE": "COC[C@H]1OC(=O)/C(=C/N(C)CC(=O)OC(C)(C)C)C2=C(O)C(=O)C3=C([C@H](OC(C)=O)C[C@]4(C)[C@@H](O)CC[C@@H]34)[C@]21C", "READOUT_UNIT": "nM", "EXPERIMENTAL_RESULT": 13900}
{"SMILES_STRUCTURE": "COC[C@H]1OC(=O)/C(=C/N2CCN(c3ccccc3)CC2)C2=C(O)C(=O)C3=C([C@H](OC(C)=O)C[C@]4(C)[C@@H](O)CC[C@@H]34)[C@]21C", "READOUT_UNIT": "nM", "EXPERIMENTAL_RESULT": 692}

(1) COC[C@H]1OC(=O)/C(=C/N(CCN(C)C)Cc2ccccc2)C2=C(O)C(=O)C3=C([C@H](OC(C)=O)C[C@]4(C)[C@@H](O)CC[C@@H]34)[C@]21C
(2) COC[C@H]1OC(=O)/C(=C/N2CCN(CCCN3CCOCC3)CC2)C2=C(O)C(=O)C3=C([C@H](OC(C)=O)C[C@]4(C)[C@@H](O)CC[C@@H]34)[C@]21C
(3) COC[C@H]1OC(=O)/C(=C/N2CCN(CCN3CCOCC3)CC2)C2=C(O)C(=O)C3=C([C@H](OC(C)=O)C[C@]4(C)[C@@H](O)CC[C@@H]34)[C@]21C
Query: Sort by IC50, descending. Lab note: final answer is the ordered label list.
Response: 1, 2, 3
(1: 5600 nM, 2: 1200 nM, 3: 619 nM)
